Molecular target: HRgpA-6H (Porphyromonas gingivalis) (UniProt P28784)
Test: ELISA, Fab FASEBA supernatant on coated HRgpA-6H
Below, each entry is listed with its recorded OD450nm.
Just the number in OD450nm, nothing appended.

binder	OD450nm [OD450nm]
parental mouse (KB001) Fab FASEBA, VL variant S57I (Fab, V domains shown) VH: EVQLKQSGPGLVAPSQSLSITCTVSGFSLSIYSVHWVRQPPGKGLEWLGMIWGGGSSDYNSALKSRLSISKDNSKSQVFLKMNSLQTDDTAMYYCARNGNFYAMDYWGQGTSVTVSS VL: QIVLTQSPAIMSASLGERVTMTCTASSSVSSSFLHWYQQKPGSSPQLWIYSTSNLAIGVPARFSGSGSGTSYSLTISSMEAEDAATYYCHQYHHSPYIYTFGGGTKLEIK	0.791

[Q] // query OD450nm value for entry parental mouse (KB001) Fab FASEBA, VL variant S95Q (Fab, V domains shown) VH: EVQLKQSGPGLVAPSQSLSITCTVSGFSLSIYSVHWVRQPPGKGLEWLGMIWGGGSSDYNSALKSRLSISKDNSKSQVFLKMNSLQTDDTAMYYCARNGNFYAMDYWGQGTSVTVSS VL: QIVLTQSPAIMSASLGERVTMTCTASSSVSSSFLHWYQQKPGSSPQLWIYSTSNLASGVPARFSGSGSGTSYSLTISSMEAEDAATYYCHQYHHQPYIYTFGGGTKLEIK
[A] 0.893

[Q] // same read-out, input: parental mouse (KB001) Fab FASEBA, VL variant S57N (Fab, V domains shown) VH: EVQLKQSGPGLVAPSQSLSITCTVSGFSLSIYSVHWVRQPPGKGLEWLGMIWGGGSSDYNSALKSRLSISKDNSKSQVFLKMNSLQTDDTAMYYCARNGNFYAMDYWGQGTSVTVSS VL: QIVLTQSPAIMSASLGERVTMTCTASSSVSSSFLHWYQQKPGSSPQLWIYSTSNLANGVPARFSGSGSGTSYSLTISSMEAEDAATYYCHQYHHSPYIYTFGGGTKLEIK
[A] 0.813

[Q] Follow-up entry: parental mouse (KB001) Fab FASEBA, VL variant H94F (Fab, V domains shown) VH: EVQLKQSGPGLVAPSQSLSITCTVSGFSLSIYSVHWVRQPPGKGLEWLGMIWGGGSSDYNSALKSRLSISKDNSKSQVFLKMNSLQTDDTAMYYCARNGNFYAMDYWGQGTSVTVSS VL: QIVLTQSPAIMSASLGERVTMTCTASSSVSSSFLHWYQQKPGSSPQLWIYSTSNLASGVPARFSGSGSGTSYSLTISSMEAEDAATYYCHQYHFSPYIYTFGGGTKLEIK
[A] 0.77

[Q] Item: parental mouse (KB001) Fab FASEBA, VL variant L55Q (Fab, V domains shown) VH: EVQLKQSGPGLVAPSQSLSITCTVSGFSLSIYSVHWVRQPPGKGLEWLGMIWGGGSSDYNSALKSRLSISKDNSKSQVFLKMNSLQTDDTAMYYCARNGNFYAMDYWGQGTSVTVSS VL: QIVLTQSPAIMSASLGERVTMTCTASSSVSSSFLHWYQQKPGSSPQLWIYSTSNQASGVPARFSGSGSGTSYSLTISSMEAEDAATYYCHQYHHSPYIYTFGGGTKLEIK
[A] 0.662
